- experimental system: Mitogen-activated protein kinase 7 (Homo sapiens)
- assay overview: Gal4-ERK5 driven luciferase induction – cell-based, HTS, primary screen (AID 1508626);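 note: luciferase driven by Gal4-ERK5 fusion binding five Gal4 sites before minimal TATA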
- conditions used: HeLa Gal4-ERK5 transactivation, 18 h, at 5 µM, stronger effect = higher value
Active and inactive are the calls of the source.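 Rule for the calls: active = luciferase signal above three times the same-plate solvent-only control wells; inactive = the rest.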
property: luciferase signal

Examples from the recorded data:
CC(=O)O[C@@](C)(CCC=C(C)C)C1CC=C(C)CC1 (stereo not given in full)    72 AU (inactive)
Nc1ncnc2c1ncn2[C@H]1C[C@H](O)[C@@H](CO)O1    136 AU (inactive)
O=c1c(O)c(-c2ccc(O)cc2)oc2ccccc12    76 AU (inactive)

Could you report luciferase signal for every entry in the following list?
1. CC(=O)O[C@H]1CC[C@]2(C)C3=C(CC[C@H]2C1(C)C)[C@@]1(C)CC[C@@H]([C@H](C)CCC=C(C)C)[C@]1(C)CC3
2. CC(=O)O[C@H]1CC[C@@]2(C)C(=CC[C@H]3[C@@H]4CC[C@H]([C@H](C)CCCC(C)C)[C@@]4(C)CC[C@@H]32)C1

1. 28 AU (inactive)
2. 56 AU (inactive)

---

- assay overview: drug combination growth inhibition, ovarian cancer – cell-based, oncology-focused library, rucaparib conditional, profiling panel (AID 1508598)
- conditions used: patient-derived ovarian cancer cells, CellTiter-Glo viability, 144 h; at 0.00122 µM; OCI-P5x cells; with rucaparib 20 µM; 100% = cells with rucaparib alone
Active and inactive are the calls of the source.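 The calls were made as follows: active = normalized viability below 100% at a tested concentration; inactive = the rest.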
Write down one outcome, taken from 1 for active, -1 for inactive

Illustrative cases are given below, each with its answer.
C[C@]12CC[C@H]3c4ccc(O)cc4CC[C@H]3[C@@H]1CC[C@H]2O    -1
C[C@H]1C[C@H]2[C@@H]3CCC4=CC(=O)C=C[C@]4(C)[C@@H]3C(=O)C[C@]2(C)[C@]1(O)C(=O)CO    -1

Consider the additional compound presented here.
// return assay outcome for `CO[C@H]1C[C@@H]2CC[C@@H](C)[C@@](O)(O2)C(=O)C(=O)N2CCCC[C@H]2C(=O)O[C@H]([C@H](C)C[C@@H]2CC[C@@H](O)[C@H](OC)C2)CC(=O)[C@H](C)/C=C(\C)[C@@H](O)[C@H](OC)C(=O)[C@H](C)C[C@H](C)/C=C/C=C/C=C/1C`
1

---

- assay overview: growth inhibition, single agent or in combination, cell-based, chromothripsis tumors, cisplatin or BGB combos (AID 1671449);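 note: cells exposed for 96 hours; 0% = vehicle DMSO and 100% = killing by high DMSO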
- conditions used: LFS_MB_P medulloblastoma cells, measured here: combination with BGB IC40, at 0.05 µM
Please go through the items and note down their inhibition.
Numbers only, in %.

Examples with their reported inhibition follow.
C[C@H](NC(=O)c1ccccc1N=Cc1c(O)ccc2ccccc12)c1ccccc1    -11
CC(C)(C#N)c1ccc(N2C(=O)OCc3cnc4ccc(-c5cnc6ccccc6c5)cc4c32)cc1    -37.9
Nc1nc(NC2CC2)cc(-c2cccc(Cl)c2Cl)n1    -3.68
NC(=S)NN=Cc1ncccc1N    -3.08
C=C(NC(=O)C(=C)NC(=O)c1csc(C2=NC3c4csc(n4)C4NC(=O)c5csc(n5)C(C(C)(O)C(C)O)NC(=O)C5CSC(=N5)/C(=C/C)NC(=O)C(C(C)O)NC(=O)c5csc(n5)C3(CC2)NC(=O)C(C)NC(=O)C(=C)NC(=O)C(C)NC(=O)C(C(C)CC)NC2C=Cc3c(C(C)O)cc(nc3C2O)C(=O)OC4C)n1)C(N)=O (stereo not drawn)    -22

Each molecule below has a reported value. Please supply its inhibition.
1. CCC(Sc1nnc2c3ccccc3n(CC)c2n1)C(=O)Nc1ccccc1OC (stereo not drawn)
2. C[C@@H]1COCCN1c1cc(C2(S(C)(=O)=O)CC2)nc(-c2cccc3[nH]ccc23)n1
3. C=CC1=C(C)C2=CC3=NC(=C(CC(=O)O)C4=NC(=C(C)C4=C(O)O)C=c4[nH]c(c(C)c4CC)=CC1=N2)C(CCC(=O)O)C3C (stereo not drawn)

1: -14.4; 2: -17.8; 3: -7.95

---

For each of the molecules below, state its inhibition.
- assay overview: UWB1.289_BRCA1 ovarian cancer growth, cell-based, BGB or cisplatin combinations (AID 1671459)
- conditions used: UWB1.289 BRCA1 ovarian carcinoma, drug combinations, at 0.5 µM, stronger effect = higher value
One number for each entry, in %.

See these solved cases before continuing.
C[C@@H]1O[C@@H](O[C@@H]2[C@@H](O)[C@H](OCCc3ccc(O)c(O)c3)O[C@H](CO)[C@H]2OC(=O)C=Cc2ccc(O)c(O)c2)[C@H](O)[C@H](O)[C@H]1O    2.12
O=c1[nH]c(=S)[nH]c2nc(-c3ccccc3)c(-c3ccccc3)nc12    3.94
COc1ccc(-c2nc(-c3cc(C(F)(F)F)cc(C(F)(F)F)c3)n(Cc3ccc(C(N)=O)cc3)c2-c2ccc(OC)cc2)cc1    -9.42
Cc1cc(C=CC#N)cc(C)c1Nc1ccnc(Nc2ccc(C#N)cc2)n1    0.87

Look up inhibition for the entries below, preserving their order.
1. Cc1cc(C)c(Nc2ccnc(Nc3ccc(C#N)cc3)n2)c(C)c1
2. CC1CNC(=O)NC1=O (centres undefined)
3. CC(C)(O)[C@H]1CC[C@@](C)(C2[C@@H](O)C[C@@]3(C)[C@@H]4C[C@H](O)C5C(C)(C)[C@@H](O)CCC56CC46CC[C@]23C)O1 (some centres undefined)
4. NC(=O)c1cccc2cn(-c3ccc(C4CCCNC4)cc3)nc12 (centres undefined)
5. CCC(Sc1nnc2c3ccccc3n(CC)c2n1)C(=O)Nc1ccccc1OC (centres undefined)

-2.68
-11
-4.21
0.96
0.44

---

- assay overview: galactose survival enhancers in mitochondrial complex I cybrids – cell-based, galactose medium, ATP luminescence, primary screen (AID 1645843);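 note: positive z means more ATP and so rescue of galactose-driven cybrid death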
- conditions used: complex I mutant cybrid cells, 72 h, stronger effect = higher value
Label Condition met when z-score is at or above -0.005; anything below gets Condition not met.

COc1cc(CC(=O)O)ccc1O    Condition met
NC1C=CC=C(C(=O)O)C1 (configuration not stated)    Condition met
C[C@H](NC(=O)c1cnc(-c2ccccc2)[nH]1)c1ccccc1    Condition not met
COc1cc(/C=C(\C#N)C(=O)c2ccc(O)c(O)c2)cc(I)c1O    Condition met

Form field: z-score at least -0.005? Entry: `CCCCCCCCCCCCCCCCCCN(CCCCCCCCCCCCCCCCCC)CCCN(CCO)CCO`
Condition met

Could you tell me if the measured z-score of `CN(Cc1cscn1)C(=O)c1nn(CC2CC2)c2c1CN(C(=O)Cn1cnc3ccccc31)CC2` reaches -0.005 or more?
Condition not met

Entry `[Li+]` : is its z-score no less than -0.005?
Condition not met

---

- assay overview: P. berghei load reduction in hepatocytes – cell-based, HepG2, luciferase luminescence, HepG2 viability, primary screen (AID 624349);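 note: 100% = mean of DMSO negative control wells on the same plate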
- conditions used: P. berghei liver stage in HepG2, luciferase luminescence, concentration not given here; measured here: HepG2 viability without parasites
property: viability (%)
Numbers only, in %.

Observe how each entry below is paired with its result.
CC(C)NC[C@@H](O)c1ccc(O)c(O)c1    93.2
CCc1[nH]c(-c2ccc(OC)cc2)nc1-c1ccncc1    82.4
CC(C)(C)NCC(O)COc1ccccc1C1CCCC1 (stereo not drawn)    78.7
Cc1nc2cc3nc(-c4cccs4)cnc3cc2n1C    168
O=c1[nH]c(=O)n([C@H]2CC(O)[C@@H](CO)O2)cc1I (stereo partly drawn)    96.5

Give viability for each listed item.
1. Cc1c(N)nc([C@H](CC(N)=O)NC[C@H](N)C(N)=O)nc1C(=O)N[C@@H](C(=O)N[C@H](C)[C@@H](O)[C@H](C)C(=O)N[C@@H](C(=O)NCCc1nc(-c2ncc(C(=O)NCCC[S+](C)C)s2)cs1)[C@@H](C)O)[C@@H](O[C@@H]1O[C@@H](CO)[C@@H](O)[C@H](O)[C@@H]1O[C@@H]1O[C@H](CO)[C@@H](O)[C@@H](OC(N)=O)[C@@H]1O)c1cnc[nH]1
2. O=C(Nc1ccc(Cl)cc1)c1ccccc1NCc1ccncc1
3. COc1ccc2c(c1)N(C[C@H](C)CN(C)C)c1ccccc1S2
4. CO/N=C(\C(=O)N[C@@H]1C(=O)N2C(C(=O)[O-])=C(C[N+]3(C)CCCC3)CS[C@H]12)c1csc(N)n1
5. CCOC(=O)c1c(C)[nH]c(/C=C2\C(=O)Nc3ccccc32)c1C
6. O=C(Nc1ccc(-c2cn[nH]c2)cc1)C1COc2ccccc2O1 (stereo not drawn)
7. N#C/C(=C1/Nc2ccccc2S1)c1ccnc(NCCc2cccnc2)n1

1: 111; 2: 69; 3: 87.8; 4: 100; 5: 69.8; 6: 62.7; 7: 85.6

Hey, can you go through the list below and give me viability for every item?
1. O=c1cc(-c2ccc(O)cc2)oc2c(C3O[C@H](CO)[C@@H](O)[C@H](O)[C@H]3O)c(O)cc(O)c12 (stereo partly drawn)
2. C[C@]1(OC(=O)/C=C/c2ccccc2)C[C@@H](O)[C@]2(O)C=CO[C@@H](O[C@@H]3O[C@H](CO)[C@@H](O)[C@H](O)[C@H]3O)[C@@H]21

[101, 74.8]

I would be grateful if you could provide viability for each of the following entries.
1. NCC1OC(OC2C(N)CC(N)C(OC3OC(CO)C(O)C(N)C3O)C2O)C(O)C(O)C1O (stereo not drawn)
2. CC1(C)O[C@@H]2CC3C4CCC5=CC(=O)CCC5(C)C4(F)C(O)CC3(C)[C@]2(C(=O)CCl)O1 (stereo partly drawn)
3. O=C1NC(=O)c2c1c(-c1ccccc1Cl)cc1[nH]c3ccc(O)cc3c21
4. CCC(NC(C)C)C(O)c1ccc(O)c2[nH]c(=O)ccc12 (stereo not drawn)
5. CCOC1O[C@H]([C@@H](COCc2ccccc2)OCc2ccccc2)[C@H](OCc2ccccc2)[C@H]1O (stereo partly drawn)

1: 78.9; 2: 88.4; 3: 81; 4: 98.2; 5: 70.5

Batch of 5 compounds: report viability for each.
1. Oc1cccc(-c2nc(N3CCOCC3)c3sccc3n2)c1
2. NCC1OC(COC[C@@H]2C(O)[C@H](OC3C(O)C(N)CC(N)C3OC3OC(CN)C(O)C(O)C3N)O[C@@H]2CO)C(N)C(O)C1O (stereo partly drawn)
3. C[C@@H]1C(=O)O[C@H]2CC34[C@H]5C[C@@H](C(C)(C)C)C36[C@@H](OC(=O)[C@@H]6O)OC4(C(=O)O5)[C@]21O (stereo partly drawn)
4. O=c1c(-c2ccc(F)cc2)c(-c2ccncc2)[nH]n1-c1ccc(Cl)cc1
5. O=C(N[C@H](CO)[C@@H](O)c1ccc([N+](=O)[O-])cc1)C(Cl)Cl

83.2
89.7
79.7
68.5
91.7

// each listed compound needs a value for viability
1. NCCNc1ncc(C(N)=O)c(Nc2cccc(C(F)(F)F)c2)n1
2. CC(=O)O[C@]1(C(C)=O)CC[C@H]2[C@@H]3C=C(C)C4=CC(=O)CC[C@@H]4[C@H]3CC[C@@]21C
3. CC(=O)N[C@@H](Cc1c[nH]c2ccccc12)C(N)=O
4. COc1ccc2c(OC)c3ccoc3nc2c1OC

1. 76.9
2. 73.5
3. 71.9
4. 95.8

Each compound below has a reported value. Please supply its viability.
1. Nc1cc(Nc2ccc(S(N)(=O)=O)cc2)ncn1
2. CN(C)CC/C=C1\c2ccccc2CSc2ccccc21
3. N#CCCc1ccc2c(c1)-c1[nH]c3ccc([N+](=O)[O-])cc3c1CC(=O)N2
4. Nc1ncnc2c1c(-c1ccc(Oc3ccccc3)cc1)cn2C1CCCC1
5. CCOc1cc2ncnc(Nc3cccc(Br)c3)c2cc1OCC

1: 133; 2: 110; 3: 120; 4: 78.8; 5: 132

// each compound listed below needs its viability
1. COc1cc(OC)c(/C=C2/C(=O)Nc3ccccc32)c(OC)c1
2. CCN(CC)C(=O)c1ccc(Nc2nc(OCC3CCCCC3)c3[nH]cnc3n2)cc1
3. CC(=O)NC1[C@@H](O)OC(CO)[C@@H](O)[C@H]1O[C@H](C)C(=O)O (stereo partly drawn)
4. O=C1NC(=O)/C(=C/c2ccc3c(c2)OCO3)S1
5. N=c1ccn2c(n1)O[C@@H]1C2O[C@H](CO)[C@H]1O (stereo partly drawn)

1. 78.8
2. 89.4
3. 76.2
4. 63.8
5. 85
